# SYSTEM NAME: Ub (Homo sapiens, UniProt P0CG48)
# ASSAY TEXT: NMR titration of 15N-labeled Ub
# Format: binding
# CONDITIONS: read-out: Dissociation constant, Ub (NMR titration); Table 2
OUTCOME MEASURE: Kd (µM)
Give your result in µM as a bare value.

Query string: Supply measured Kd of O=S(=O)(O)c1ccc2c(ccc3nn(-c4ccc(/C=C/c5ccc(-n6nc7ccc8cc(S(=O)(=O)O)ccc8c7n6)cc5S(=O)(=O)O)c(S(=O)(=O)O)c4)nc32)c1 [ubiB, Ubistatin B] in your reply.
Result string: 11.3

* * *

# SYSTEM NAME: Ub^R74A (Homo sapiens, UniProt P0CG48, R74A)
# ASSAY TEXT: NMR titration of 15N-labeled Ub^R74A
# CONDITIONS: read-out: Dissociation constant, Ub^R74A (NMR titration); Table 2
OUTCOME MEASURE: Kd (µM)
// return numeric value only (unit: µM, not printed)

Query string: Look up and report measured Kd for this entry: O=S(=O)(O)c1ccc2c(ccc3nn(-c4ccc(/C=C/c5ccc(-n6nc7ccc8cc(S(=O)(=O)O)ccc8c7n6)cc5S(=O)(=O)O)c(S(=O)(=O)O)c4)nc32)c1 [ubiB, Ubistatin B]
Result string: 40.3
